This section presents molecules with their documented IC50 values.
SUBJECT_OF_TEST: MOZ-KAT6A (Homo sapiens, UniProt Q92794, A567V)
Sequence (Q92794 with tags, fused parts or gaps A567V): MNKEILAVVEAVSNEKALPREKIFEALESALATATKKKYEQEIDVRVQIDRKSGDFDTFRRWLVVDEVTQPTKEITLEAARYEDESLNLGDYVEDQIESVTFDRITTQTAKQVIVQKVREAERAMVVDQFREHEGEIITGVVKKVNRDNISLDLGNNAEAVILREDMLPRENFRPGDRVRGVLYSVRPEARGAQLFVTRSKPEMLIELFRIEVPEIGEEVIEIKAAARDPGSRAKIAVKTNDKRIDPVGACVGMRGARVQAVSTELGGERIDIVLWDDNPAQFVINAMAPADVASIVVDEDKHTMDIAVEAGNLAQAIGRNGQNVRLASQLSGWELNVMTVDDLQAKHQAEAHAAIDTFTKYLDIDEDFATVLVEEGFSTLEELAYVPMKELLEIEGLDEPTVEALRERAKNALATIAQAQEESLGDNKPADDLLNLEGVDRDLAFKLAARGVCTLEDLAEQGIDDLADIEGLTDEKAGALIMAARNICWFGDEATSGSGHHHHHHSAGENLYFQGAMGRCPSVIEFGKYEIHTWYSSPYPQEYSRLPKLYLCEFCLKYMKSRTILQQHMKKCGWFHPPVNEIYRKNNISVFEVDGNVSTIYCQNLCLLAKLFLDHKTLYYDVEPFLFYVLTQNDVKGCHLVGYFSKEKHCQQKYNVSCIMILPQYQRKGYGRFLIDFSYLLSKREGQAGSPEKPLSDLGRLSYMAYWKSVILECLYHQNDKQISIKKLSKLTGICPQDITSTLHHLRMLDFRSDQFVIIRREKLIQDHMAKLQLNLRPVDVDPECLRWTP
PROTOCOL_DESCRIPTION: Acetyltransferase biochemical assay (AlphaScreen), KAT6A
Supply the numeric figure in µM, leaving out any unit text.

Observe how each entry below is paired with its result.
COMPOUND_STRUCTURE: O=S(=O)(Nc1noc2cccc(Cl)c12)c1ccc(Oc2ccc(F)cc2)cc1
ENDPOINT: IC50
UOM: µM
NUMERIC_VALUE: 11.8
//
COMPOUND_STRUCTURE: CCc1ccc(OC)c(S(=O)(=O)Nc2noc3cccc(C)c23)c1
ENDPOINT: IC50
UOM: µM
NUMERIC_VALUE: 2.82
//
COMPOUND_STRUCTURE: COc1cccc(OC)c1S(=O)(=O)Nc1noc2cc(-c3ccccc3)cc(OC)c12
ENDPOINT: IC50
UOM: µM
NUMERIC_VALUE: 0.013
//
COMPOUND_STRUCTURE: CCc1ccc(CC)c(S(=O)(=O)Nc2noc3ccccc23)c1
ENDPOINT: IC50
UOM: µM
NUMERIC_VALUE: 72.8
//
COMPOUND_STRUCTURE: CCc1ccc(OC)c(S(=O)(=O)Nc2noc3c(C(=O)N(C)C)cccc23)c1
ENDPOINT: IC50
UOM: µM
NUMERIC_VALUE: 105

Briefly, IC50 measured for Cn1c(=O)oc2cc(S(=O)(=O)Nc3noc4cccc(Cl)c34)ccc21 : 63.9

Briefly, IC50 measured for CCc1ccc2onc(NS(=O)(=O)c3cc4c(cc3OC)CCCC4)c2c1 : 0.4

Briefly, IC50 measured for COc1cccc(OC)c1S(=O)(=O)Nc1noc2cccc(N)c12 : 50.4

Briefly, IC50 measured for COc1cccc2onc(NS(=O)(=O)c3cccc4cc(C)cnc34)c12 : 4.55

Briefly, IC50 measured for COc1cccc(OC)c1S(=O)(=O)Nc1noc2cc(C)cc(OC)c12 : 2.13

Briefly, IC50 measured for CCc1ccc(OC)c(S(=O)(=O)Nc2noc3cc(-c4ccccc4)ccc23)c1 : 2.86

Briefly, IC50 measured for CCc1ccc(OC)c(S(=O)(=O)Nc2noc3ccc(CC)cc23)c1 : 0.395

====

pIC50: −log10 of the molar value.
The following compounds each carry a recorded pIC50 for TIP60-KAT5 (Homo sapiens, UniProt Q92993).

COMPOUND_STRUCTURE: O=S(=O)(Nc1noc2cccc(Cl)c12)c1ccc(-n2cccn2)cc1
pIC50: < 3.90

Briefly, pIC50 measured for Cc1ccc(S(=O)(=O)Nc2noc3cccc(Cl)c23)cc1Cl : < 3.90

Briefly, pIC50 measured for CNc1cccc(OC)c1S(=O)(=O)Nc1noc2cccc(OC)c12 : < 3.90

====

The following compounds each carry a recorded IC50 for HBO-KAT7 (Homo sapiens).

Observe how each entry below is paired with its result.
COMPOUND: CCc1ccc(OC)c(S(=O)(=O)Nc2noc3ccc(CNC(C)=O)cc23)c1 [Example 228]
RESULT: > 125 µM
--
COMPOUND: O=S(=O)(Nc1noc2ccccc12)c1cccc(Cl)c1Cl [Example 60]
RESULT: > 125 µM

For the next question, use this compound.
Briefly, IC50 measured for CCc1ccc(OC)c(S(=O)(=O)Nc2noc3ccc(C(N)=O)cc23)c1 [Example 232] : > 125 µM

====

This section presents molecules with their documented pIC50 values.
System: acetylation of the histone H3 Lysine 14 marker in U2OS cells
PROTOCOL_DESCRIPTION: Histone H3 Lysine 14 Acetylation Biomarker Assay
Type: cell-based
CONDITIONS: Homo sapiens, serum free medium, 24 hours incubation, read-out: IC50, inhibition of histone H3 Lysine 14 acetylation
Scale explanation: pIC50 corresponds to minus log10 of a concentration expressed in moles per litre.

Observe how each entry below is paired with its result.
COMPOUND_STRUCTURE: COc1cccc(OC)c1S(=O)(=O)Nc1noc2cc(-c3ncco3)cc(OC)c12
pIC50: 5.53
--
COMPOUND_STRUCTURE: COc1cccc(-c2cc(OC)c3c(NS(=O)(=O)c4c(OC)cccc4OC)noc3c2)c1
pIC50: 6.87

For the next question, use this molecule.
Briefly, pIC50 measured for COCc1cc(OC)c2c(NS(=O)(=O)c3c(OC)cccc3OC)noc2c1 : 6.27

====

SUBJECT_OF_TEST: HBO-KAT7 (Homo sapiens, UniProt O95251)
Sequence (O95251 with tags, fused parts or gaps): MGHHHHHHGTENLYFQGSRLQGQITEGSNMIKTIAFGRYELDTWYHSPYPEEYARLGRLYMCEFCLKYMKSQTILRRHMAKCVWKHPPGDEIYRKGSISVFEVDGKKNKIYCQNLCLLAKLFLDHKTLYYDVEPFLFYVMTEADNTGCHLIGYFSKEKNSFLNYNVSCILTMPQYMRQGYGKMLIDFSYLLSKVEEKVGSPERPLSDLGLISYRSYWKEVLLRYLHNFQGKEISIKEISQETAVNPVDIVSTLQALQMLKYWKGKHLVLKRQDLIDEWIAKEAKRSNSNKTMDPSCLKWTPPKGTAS
Counter-ions that a name gives are not always drawn.
This section presents compounds with their documented IC50 values.
Supply the numeric figure in µM, leaving out any unit text.

Observe how each entry below is paired with its result.
COMPOUND: COc1cccc(OC)c1S(=O)(=O)Nc1noc2cc(-c3ccccn3)cc(OC)c12
NUMERIC_VALUE: 0.511
//
COMPOUND: COc1cc(CN)cc(OC)c1S(=O)(=O)Nc1noc2cccc(OC)c12 [Example 210, hydrochloride]
NUMERIC_VALUE: 6.54

For the next question, use this compound.
Briefly, IC50 measured for O=S(=O)(Nc1noc2cccc(Cl)c12)c1cccc2c1OCCO2 : 10.1

====

SUBJECT_OF_TEST: MOZ-KAT6A (Homo sapiens, UniProt Q92794, A567V)
PROTOCOL_DESCRIPTION: Acetyltransferase biochemical assay (AlphaScreen), KAT6A
ENDPOINT: pIC50
Scale explanation: pIC50 corresponds to minus log10 of a concentration expressed in moles per litre.

COMPOUND_STRUCTURE: COc1cccc2onc(NS(=O)(=O)c3cccc4ccc(C)nc34)c12
NUMERIC_VALUE: 5.46

Entry CCOc1ccc(CC)cc1S(=O)(=O)Nc1noc2ccccc12 under MOZ-KAT6A (Homo sapiens, UniProt Q92794, A567V) had pIC50 of 4.25

Entry COc1ccccc1S(=O)(=O)Nc1noc2cc(Br)ccc12 under MOZ-KAT6A (Homo sapiens, UniProt Q92794, A567V) had pIC50 of 4.64

====

SUBJECT_OF_TEST: MOZ-KAT6A (Homo sapiens, UniProt Q92794, A567V)
PROTOCOL_DESCRIPTION: Acetyltransferase biochemical assay (AlphaScreen), KAT6A
ENDPOINT: pIC50
Scale explanation: pIC50 corresponds to minus log10 of a concentration expressed in moles per litre.

COMPOUND_STRUCTURE: O=S(=O)(Nc1noc2ccccc12)c1ccc(Br)cn1
ENDPOINT: pIC50
NUMERIC_VALUE: 4.07

COMPOUND_STRUCTURE: COc1ccc(S(=O)(=O)Nc2noc3cc(C(N)=O)c(C)cc23)c2ncccc12
ENDPOINT: pIC50
NUMERIC_VALUE: 5.00

COMPOUND_STRUCTURE: COCc1cc(OC)c2c(NS(=O)(=O)c3c(OC)cc(-c4ccccc4)cc3OC)noc2c1
ENDPOINT: pIC50
NUMERIC_VALUE: 8.05

COMPOUND_STRUCTURE: O=S(=O)(Nc1noc2cccc(Cl)c12)c1cccc2ccncc12
ENDPOINT: pIC50
NUMERIC_VALUE: 4.18

For the next question, use this compound.
Briefly, pIC50 measured for COc1cccc(OC)c1S(=O)(=O)Nc1noc2cc(-c3ncco3)cc(OC)c12 : 6.58

====

SUBJECT_OF_TEST: MOZ-KAT6A (Homo sapiens, UniProt Q92794, A567V)
PROTOCOL_DESCRIPTION: Acetyltransferase biochemical assay (AlphaScreen), KAT6A
This section presents compounds with their documented IC50 values.
Supply the numeric figure in nM, leaving out any unit text.

Entry COc1cc2c(cc1S(=O)(=O)Nc1noc3ccc(Br)cc13)CCCC2 under MOZ-KAT6A (Homo sapiens, UniProt Q92794, A567V) had IC50 of 775

Entry COc1cccc(OCC2CC2)c1S(=O)(=O)Nc1noc2cccc(OC)c12 under MOZ-KAT6A (Homo sapiens, UniProt Q92794, A567V) had IC50 of 4470

Entry CCc1ccc(OC)c(S(=O)(=O)Nc2noc3cc(C)ccc23)c1 under MOZ-KAT6A (Homo sapiens, UniProt Q92794, A567V) had IC50 of 1950

====

SUBJECT_OF_TEST: MOZ-KAT6A (Homo sapiens, UniProt Q92794, A567V)
PROTOCOL_DESCRIPTION: Acetyltransferase biochemical assay (AlphaScreen), KAT6A
ENDPOINT: IC50 (µM)
Supply the numeric figure in µM, leaving out any unit text.

Observe how each entry below is paired with its result.
MOLECULE: COc1ccc(C(C)C)cc1S(=O)(=O)Nc1noc2cccc(Cl)c12 [Example 41]
IC50 / µM: 4.27

MOLECULE: COc1cc(C#N)cc(-c2cc(OC)c3c(NS(=O)(=O)c4c(OC)cccc4OC)noc3c2)c1 [Example 251]
IC50 / µM: 1.16

MOLECULE: COc1cc(CO)cc(OC)c1S(=O)(=O)Nc1noc2cccc(OC)c12 [Example 209]
IC50 / µM: 2.03

MOLECULE: CCc1ccc(S(=O)(=O)Nc2noc3ccccc23)c(OC)c1 [Example 182]
IC50 / µM: 15.2

MOLECULE: O=S(=O)(Nc1noc2cccc(Cl)c12)c1cc(OCC(F)(F)F)ccc1OCC(F)(F)F [Example 10]
IC50 / µM: 17.5

Entry CCc1ccc(OC)c(S(=O)(=O)Nc2noc3cccc(-c4cncnc4)c23)c1 [Example 203] under MOZ-KAT6A (Homo sapiens, UniProt Q92794, A567V) had IC50 of 22.6

Entry COc1cccc2onc(NS(=O)(=O)c3cc(C)cc4cccnc34)c12 [Example 78] under MOZ-KAT6A (Homo sapiens, UniProt Q92794, A567V) had IC50 of 93.8

Entry COc1cccc2onc(NS(=O)(=O)c3cccc4ccoc34)c12 [Example 81] under MOZ-KAT6A (Homo sapiens, UniProt Q92794, A567V) had IC50 of 43.6

Entry CCc1ccc(OC)c(S(=O)(=O)Nc2noc3c(-c4ncccn4)cccc23)c1 [Example 136] under MOZ-KAT6A (Homo sapiens, UniProt Q92794, A567V) had IC50 of 34.3
